Please go through the items and note down their z-score.
# protocol: P. aeruginosa biofilm formation inhibitors, primary screen, strain PAO1, LB-PBS medium, absorbance 600 nm (AID 1176); note: test concentration not given here
# measurement-setup: P. aeruginosa PAO1 growth/biofilm, A600, 12 h; higher = more signal
Please give only the number in your answer, with no unit.

Respond only with z-score recorded for `CC(C)=CCCC(C)=CCON=C1[C@H]2CCn3c(=O)n(-c4ccccc4)c(=O)n3[C@H]2[C@H](O)[C@@H]2O[C@H]12`
0.717

Respond only with z-score recorded for `CC(CCC(=O)OC[C@H]1O[C@H](C#Cc2ccccc2)C=C[C@@H]1Oc1ccc(C)cc1)=NO[C@H](C)c1cn([C@@H]2COC[C@H]2O)nn1`
1.12

Respond only with z-score recorded for `O=C1C2=CC[C@H]3C(=O)N(C4CCCCC4)C(=O)[C@H]3[C@H]2[C@H](O)[C@@H]2O[C@H]12`
-0.2

Respond only with z-score recorded for CC(=O)OC[C@H]1O[C@H](CC=NOC(C)CN2CCCc3nc(C)c(C)cc32)C=C[C@@H]1OC(C)=O (some centres undefined)
-0.373

----------
Please go through the items and note down their composite z-score.
# protocol: small-molecule microarray binders of probe aWnt5a, primary screen, biochemical, biotinylated probe, 635/667 nm fluorescence (AID 1113);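 note: score merges 667 nm fluorescence intensity with signal-to-noise per printed feature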
# measurement-setup: higher = more signal

Respond only with composite z-score recorded for `CCOC(=O)CCN1C(=O)[C@H]2[C@H]3[C@H](O)[C@H](O)CC(=NNC(=O)OCc4ccc(OC)cc4)[C@H]3CC[C@H]2C1=O`
0.0243

Respond only with composite z-score recorded for `COc1ccc(COC(=O)NN=C2C[C@@H](O)[C@@H](O)[C@@H]3[C@@H]4C(=O)N([C@@H](C)c5ccccc5)C(=O)[C@@H]4CC[C@H]23)cc1`
-0.0405

Respond only with composite z-score recorded for `CC(C)=NOC[C@@H](O)[C@H]1O[C@@H]2OC(C)(C)O[C@@H]2[C@H]1O`
0.163

Respond only with composite z-score recorded for `CC(C)C(=O)N[C@H]1CCCN1C(=O)C=Cc1ccccc1`
0.0495

Respond only with composite z-score recorded for `CO[C@@H]1C=CCC(=O)N[C@@H](C)C(=O)OC[C@@H](OC)[C@H](C)C=CCC(=O)OC[C@H]1C`
-0.152

Respond only with composite z-score recorded for `COC(=O)[C@@H]1CC[C@H](C)[C@@H](c2ccc(C)cc2)N1C(=O)c1ccc(C=NOC[C@@H](O)[C@H]2O[C@@H]3OC(C)(C)O[C@@H]3[C@H]2O)cc1`
-0.117

Respond only with composite z-score recorded for `COc1ccc(-c2cnnc(CCCn3ccnc3-c3ccccc3)n2)cc1`
-0.103

Respond only with composite z-score recorded for `O=C1[C@H]2[C@H]3[C@H](O)[C@H](O)CC(=NO[C@@H]4O[C@H](CO)[C@@H](O)[C@H](O)[C@H]4O)[C@@H]3CC[C@H]2C(=O)N1C1CCCCC1`
0.0101

Respond only with composite z-score recorded for COC(=O)[C@H](C)NC(=O)CCC1CC(OC(=O)NCc2cccc3ccccc23)CC2(CCCC(COC(=O)NCc3ccccc3)O2)O1 (stereo partly drawn)
-0.0721

Respond only with composite z-score recorded for `O=C1[C@H]2[C@H]3[C@H](O)[C@H](O)CC(=NOC[C@@H](O)COCc4ccco4)[C@@H]3CC[C@H]2C(=O)N1Cc1ccc2c(c1)OCO2`
-0.172

Respond only with composite z-score recorded for CCOC(=O)[C@H](Cc1ccccc1)NC(=O)CCC1CC(OC(=O)NCc2ccc3c(c2)OCO3)CC2(CCCC(COC(=O)NCCOC)O2)O1 (stereo partly drawn)
-0.124

Respond only with composite z-score recorded for COC(=O)[C@H](C)NC(=O)CCC1CC(OC(=O)NCc2ccc3c(c2)OCO3)CC2(CCCC(COC(=O)NCCc3ccc(Cl)cc3)O2)O1 (stereo partly drawn)
-0.0367

Respond only with composite z-score recorded for CC(CCC(=O)OC[C@H]1O[C@H](C#Cc2ccccc2)C=C[C@@H]1Oc1ccc(C)cc1)=NOC(C)CN1CCCc2nc(C)c(C)cc21 (stereo partly drawn)
-0.0944

Respond only with composite z-score recorded for CCOC(=O)[C@H](CC(C)C)NC(=O)CCC1CC(OC(=O)NCc2ccc3c(c2)OCO3)CC2(CCCC(COC(=O)NCCc3ccccc3OC)O2)O1 (stereo partly drawn)
-0.298

Respond only with composite z-score recorded for CCOC(=O)[C@H](CC(C)C)NC(=O)CCC1CC(OC(=O)NCc2ccc3c(c2)OCO3)CC2(CCCC(COC(=O)NCCOc3ccccc3)O2)O1 (stereo partly drawn)
0.0232

Respond only with composite z-score recorded for `CC(C)(C)N1C(=O)[C@H]2[C@H]3[C@H](O)[C@H](O)CC(=NNC(=O)OCc4ccccc4)[C@@H]3CC[C@H]2C1=O`
-0.0721

Respond only with composite z-score recorded for `C=CC[C@@H]1C=C[C@H](ON=C[C@@H](NS(=O)(=O)c2ccc(C)cc2)[C@H](C)C=CCC(=O)OC)[C@@H](CO)O1`
-0.13

Respond only with composite z-score recorded for `CC(CCC(=O)OC[C@H]1O[C@H](C#Cc2ccccc2)C=C[C@@H]1Oc1ccc(C)cc1)=NOC[C@@H](C)[C@H](OCc1ccccc1)C(C)C`
-0.0573

----------
# protocol: modulators of HCV replicon luciferase signal, primary screen, HCV replication inhibitor project, Huh7 cells, luciferase reporter (AID 1109);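 note: huh7 hepatoma cells harbouring a luciferase neomycin HCV replicon reporter; luciferase luminescence as measure of HCV replicon replication; test concentration not given here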
# measurement-setup: 48 h, higher = more signal
The threshold is inclusive: z-score of exactly -0.5 counts as y; values below receive n.

Decide: z-score of `CCOC(=O)CCN1C(=O)[C@H]2[C@H]3[C@H](O)[C@H](O)CC(=NOCC=C(C)CCC=C(C)C)[C@H]3CC[C@H]2C1=O` >= -0.5?
y

Decide: z-score of `CC(CCN1CCCc2nc(C)c(C)cc21)=NO[C@@H](C)c1cn([C@H](CO)Cc2ccccc2)nn1` >= -0.5?
y

Decide: z-score of `CCN1C(=O)[C@H]2[C@H]3[C@H](O)[C@H](O)CC(=NOCC=C(C)CCC=C(C)C)[C@@H]3CC[C@H]2C1=O` >= -0.5?
y

Decide: z-score of `COc1ccc(O[C@H]2C=C[C@@H](c3ccccc3)O[C@@H]2CON=C2c3cc(OC)ccc3O[C@H](c3cccc(OC)c3)[C@H]2O)cc1` >= -0.5?
n

Decide: z-score of `CC(C)(C)N1C(=O)[C@H]2[C@H]3[C@H](O)[C@H](O)CC(=NNC(=O)OCc4ccccc4)[C@H]3CC[C@H]2C1=O` >= -0.5?
n

Decide: z-score of `CC(C)(C)N1C(=O)[C@H]2[C@@H]3C(=CC[C@H]2C1=O)C(=O)[C@H]1O[C@H]1[C@H]3O` >= -0.5?
n

Decide: z-score of O=C(NCCC[N+]1=CC=NC1c1ccccc1)N1CCCc2nc(-c3ccc(Br)cc3)ccc21 (stereo unspecified) >= -0.5?
n

Decide: z-score of `C#CCCCON=C1C[C@@H](O)[C@@H](O)[C@@H]2[C@@H]3C(=O)N(C[C@@H]4CCCO4)C(=O)[C@@H]3CC[C@@H]12` >= -0.5?
y

Decide: z-score of `CCOC(=O)CCN1C(=O)[C@H]2[C@H]3[C@H](O)[C@H](O)CC(=NNC(=O)OCc4ccc(OC)cc4)[C@H]3CC[C@H]2C1=O` >= -0.5?
n

Decide: z-score of `CCCNC(=O)OC[C@H]1O[C@H](CCON=C2c3cc(OC)ccc3O[C@H](c3cccc(OC)c3)[C@H]2O)C=C[C@@H]1Oc1ccc(OC)cc1` >= -0.5?
n

Decide: z-score of `CC#CCOCCC=C1c2ccccc2[C@@H](OC)[C@@H]1C` >= -0.5?
n

Decide: z-score of CCOC(=O)[C@H](Cc1ccccc1)NC(=O)CCC1CC(OC(=O)NCCc2ccc(F)cc2)CC2(CCCC(COC(=O)NCc3cccc(C(F)(F)F)c3)O2)O1 (stereo partly specified) >= -0.5?
n

Decide: z-score of `C#CCCCON=C1C[C@@H](O)[C@@H](O)[C@@H]2[C@@H]3C(=O)N(C4CCCCC4)C(=O)[C@@H]3CC[C@@H]12` >= -0.5?
y

Decide: z-score of `CCc1cc2c(nc1CC)CCN(CCC(C)=NOC[C@@H](C)[C@H](OCc1ccccc1)C(C)C)C2` >= -0.5?
n

Decide: z-score of COC(=O)[C@H](C)NC(=O)CCC1CC(OC(=O)NCc2ccc3c(c2)OCO3)CC2(CCCC(COC(=O)NCCCN3CCCC3=O)O2)O1 (stereo partly specified) >= -0.5?
n

----------
Please go through the items and note down their z-score.
# protocol: PSAC antagonists in infected red cells, primary screen, cell-based, P. falciparum Indochina, OD700, 18 h (AID 1157)
# measurement-setup: P. falciparum Indochina infected erythrocytes, osmotic lysis OD700, 18 h; higher = more signal, called active from +8 up or from −8 down
Please give only the number in your answer, with no unit.

Respond only with z-score recorded for `CCOC(=O)CCN1C(=O)[C@H]2[C@H]3[C@H](O)[C@H](O)CC(=NO[C@@H]4O[C@H](CO)[C@@H](O)[C@H](O)[C@H]4O)[C@H]3CC[C@H]2C1=O`
-0.0643

Respond only with z-score recorded for `COc1ccc(COC(=O)NN=C2C[C@@H](O)[C@@H](O)[C@@H]3[C@@H]4C(=O)N([C@@H](C)c5ccccc5)C(=O)[C@@H]4CC[C@@H]23)cc1`
-0.0631

Respond only with z-score recorded for `Cc1ccc2[nH]c3nc(CCCn4ccnc4-c4ccccc4)nnc3c2c1`
0.322

Respond only with z-score recorded for `CC(C)C(=O)N[C@H]1CCCN1C(=O)C=Cc1ccccc1`
0.346

Respond only with z-score recorded for `CN1CCc2nc(-c3ccccc3)c(-c3ccccc3)cc2C1`
-0.021

Respond only with z-score recorded for `C[C@@H]1CC[C@H]2C(=O)O[C@@H](CN=[N+]=[N-])CN2[C@H]1c1ccc(Br)cc1`
2.16

Respond only with z-score recorded for `CON(C)C(=O)c1nnc2c(n1)[nH]c1ccccc12`
0.0008

Respond only with z-score recorded for `CON=C(C)CCN1CCc2nc(-c3ccccc3)c(-c3ccccc3)cc2C1`
0.808

Respond only with z-score recorded for `O=C1C=C[C@@H](O)[C@@H]2[C@@H]3C(=O)N(c4cccc(Oc5ccccc5)c4)C(=O)[C@@H]3CC[C@@H]12`
-1.07

Respond only with z-score recorded for `COC(=O)[C@H](CCSC)NC(=O)CC=C[C@@H](C)CO`
-0.167

Respond only with z-score recorded for COC(=O)CC=C[C@@H](C)[C@@H](C=NOC(C)CN1CCCc2nc(C)c(C)cc21)NS(=O)(=O)c1ccc(C)cc1 (stereo partly drawn)
0.49

Respond only with z-score recorded for COc1ccc(OC[C@@H]2CC3[C@@H](c4ccc(Br)cc4)[C@H](C)CC[C@H]3C(=O)O2)cc1 (stereo partly drawn)
0.759

Respond only with z-score recorded for `O=C(NN=C1C[C@@H](O)[C@@H](O)[C@@H]2[C@@H]3C(=O)N(Cc4ccc5c(c4)OCO5)C(=O)[C@@H]3CC[C@@H]12)OCc1ccccc1`
-1.85
